// provenance: PubChem BioAssay AID743287

- experimentalProtocol: primary screen for activators of insulin secretion dependent on glucose, INS-1E cells, GLuc reporter luminescence (AID 743287);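 note: 0% = median of neutral control wells and 100% = median of IBMX positive control wells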
- testSettings: INS-1E GLuc reporter insulin secretion, 2-3 h, at 16.6 µM
Hit rate of the full screen: of about 370,000 compounds, about 2,300 (0.62%) were called active.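 Rule for the calls: active = lowest replicate activation of at least 40%, so every replicate reaches that level; inactive = the rest.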 The sample holds actives, similar compounds and a random draw of the others, so the mix is not that of the screen.
Thanks in advance; please answer with one of these: 1.0 for active, 0.0 for inactive

// below: answered molecules
molecule: COc1ccc(CN(C)C[C@H]2Oc3c(NC(=O)c4cnccn4)cccc3C(=O)N([C@H](C)CO)C[C@@H]2C)cc1
cat: 0.0
--
molecule: CC(C)NC(=O)Nc1ccc2c(c1)C(=O)N(C)[C@H]1CC[C@H](CC(=O)NCC3CCCCC3)O[C@@H]1CO2
cat: 0.0
--
molecule: C[C@@H]1CN([C@H](C)CO)C(=O)c2cc(NS(=O)(=O)c3cccs3)ccc2O[C@@H](C)CCCCO[C@@H]1CN(C)C(=O)c1ccncc1
cat: 0.0

Would you mind telling me which call this test gave `COc1cccc(S(=O)(=O)N2CCC3(CC2)CN[C@H](CO)c2c3c3ccc(OC)cc3n2C)c1` ?
0.0

For `CCOC(=O)c1sc2nc(C)nc(SCC(N)=O)c2c1C` , what call appears in the results of this test?
0.0

Would you mind telling me which call this test gave `C[C@@H]1CCCCO[C@H](CN(C)C(=O)Cc2ccccc2)[C@H](C)CN([C@@H](C)CO)C(=O)c2cc(NS(=O)(=O)c3ccc(F)cc3)ccc2O1` ?
0.0

Fill in: this test's call for `Cc1cc(N/C=C\C(=O)c2ccc(Cl)c(Cl)c2)no1` is ___
1.0

Identify the outcome logged in this assay for the molecule shown: `C[C@H]1CN([C@@H](C)CO)C(=O)c2cccc(NC(=O)Nc3ccc(F)cc3)c2O[C@H]1CN(C)S(=O)(=O)c1cn(C)cn1`
0.0

# fetch the recorded call for COc1ccc(CN2CCCCC2C)cc1OC (stereo not drawn) here
0.0

// param item: `CC(C)CC#Cc1ccc([C@H]2[C@H]3CN(C(=O)c4cnccn4)CC(=O)N3[C@H]2CO)cc1` ; yields the recorded call
1.0

Write down the call the test reported for this molecule. Item: NC(Cc1ccc(F)cc1)c1csc(Nc2nncc3ccccc23)n1 (stereo not drawn)
0.0

Please let me know the test result on file for `O=C1N[C@H](c2ccccc2)COCc2cn(nn2)CC[C@@H]1Cc1ccc(Cl)cc1` .
0.0

Outcome logged for COC(=O)N1Cc2ccnnc2CC1c1ccccc1Br (stereo not drawn) in this assay:
0.0

Just curious, what result did `CCOC(=O)c1sc2nc(C)nc(Nc3ccc(OC)c(OC)c3)c2c1C` get here?
0.0

Recorded call for `C[C@H]1CN([C@@H](C)CO)C(=O)Cc2cc(NC(=O)Cn3cnnn3)ccc2O[C@@H]1CN(C)Cc1ccc(-c2ccccc2)cc1` ?
0.0

====

- experimentalProtocol: primary screen for activators of insulin secretion dependent on glucose, INS-1E cells, GLuc reporter luminescence (AID 743287)
- testSettings: INS-1E GLuc reporter insulin secretion, 2-3 h, at 16.6 µM
About 2,300 (0.62%) of roughly 370,000 compounds were called active.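 Rule for the calls: active = lowest replicate activation of at least 40%, so every replicate reaches that level; inactive = the rest.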 Shown is part of a subset that was picked to be rich in actives.
Write down one outcome, taken from active, inactive

Please state the recorded outcome for this molecule: `CO[C@@H]1CN(C)C(=O)c2cc(NS(=O)(=O)CC(F)(F)F)ccc2OC[C@H](C)N(Cc2ccccn2)C[C@@H]1C`
inactive

====

- experimentalProtocol: primary screen for activators of insulin secretion dependent on glucose, INS-1E cells, GLuc reporter luminescence (AID 743287)
- testSettings: INS-1E GLuc reporter insulin secretion, 2-3 h, at 16.6 µM, hits give high values
In all, about 370,000 compounds went through this assay and about 2,300 (0.62%) were called active. Only a selection was taken, and actives are over-represented in it overall.
measure: activation (%)
Please state the figure in %; there is no need to write the unit.

compound: CN1CCCc2nc(-c3ccccc3)ccc21
measure: activation
measurementUnits: %
reading: 15.2
--
compound: O=C(Nc1ccc2c(c1)OCO2)c1sc2cc(Cl)ccc2c1Cl
measure: activation
measurementUnits: %
reading: 69.2

Then there is this compound:
So, `CNc1nc(-c2ccccc2)cc(-c2ccccc2)n1` ? Its activation was 50.3

====

- experimentalProtocol: primary screen for activators of insulin secretion dependent on glucose, INS-1E cells, GLuc reporter luminescence (AID 743287);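 note: 0% = median of neutral control wells and 100% = median of IBMX positive control wells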
- testSettings: INS-1E GLuc reporter insulin secretion, 2-3 h, at 16.6 µM
In all, about 370,000 compounds went through this assay and about 2,300 (0.62%) were called active.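 How the source made its calls: active means lowest replicate activation of at least 40%, so every replicate reaches that level; inactive means the rest.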 The sample holds actives, similar compounds and a random draw of the others, so the mix is not that of the screen.
// classify into Y (active), N (inactive)

Dear all, I need the recorded test outcome for `C[C@@H]1CN([C@H](C)CO)C(=O)c2cc(C#Cc3ccncc3)cnc2O[C@H]1CN(C)Cc1ccncc1` , thank you.
N

What did this assay record as the result for `CC(C)NC(=O)Nc1ccc2c(c1)CC(=O)N(C)C[C@@H](C)[C@@H](CN(C)C(=O)OC(C)(C)C)O2` ?
N

Entry `CN1c2ccc(-c3ccc(F)cc3)cc2[C@@H]2[C@@H](CCN2C(=O)c2cccnc2)[C@H]1CO` : call = ?
N

Please let me know the test result on file for `O=C(CN1CCSCC1)N/N=C/c1ccc(F)cc1` .
N

Given `CO[C@H]1CN(C)C(=O)c2ccc(NC(=O)NC(C)C)cc2OC[C@H](C)N(Cc2cncnc2)C[C@@H]1C` , state the outcome it received in this test.
N

Query: recorded result category for CC(C)(C)c1ccc(S(=O)(=O)NC(=O)C2(C)CCN2C(=O)CC2CC2)cc1 (stereo not given) in this test
N

Status in this test for `COc1ccc(CN2CCOC2=O)cc1OC` ?
Y

Please state the recorded outcome for this molecule: `Cc1ccc(/C=N/NC(=O)COc2ccccc2-c2ccccc2)cc1`
Y

Could you check what this test reported for `O=C(COc1ccc(-c2ccccc2)cc1)NN=C1CCCC1` ?
N

Status in this test for `Cc1ccccc1C(=O)NC(=S)NC1CC1` ?
N

====

- experimentalProtocol: primary screen for activators of insulin secretion dependent on glucose, INS-1E cells, GLuc reporter luminescence (AID 743287);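 note: 0% = median of neutral control wells and 100% = median of IBMX positive control wells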
- testSettings: INS-1E GLuc reporter insulin secretion, 2-3 h, at 16.6 µM, hits give high values
Among all 370,000 compounds or so, about 2,300 (0.62%) were called active. This is one part of a sample in which actives are shown more often than they occur.
measure: activation (%)
Report as a plain number; the unit % is understood.

Some compounds with recorded activation:
smilesStr: CC(C)CC#Cc1ccc2c(c1)O[C@H](CN(C)Cc1cccnc1)[C@H](C)CN([C@@H](C)CO)S2(=O)=O
reading: -26.2
//
smilesStr: C[C@@H]1CN([C@H](C)CO)C(=O)c2cc(NC(=O)Cn3cnnn3)ccc2O[C@@H]1CN(C)C(=O)Nc1ccc2c(c1)OCO2
reading: 6.33
//
smilesStr: Cc1noc(C)c1NC(=O)N(C)C[C@@H]1Oc2c(NC(=O)CCCCCC(=O)Nc3ccccc3N)cccc2C(=O)N([C@H](C)CO)C[C@@H]1C
reading: -5.82

According to the records, this compound `COc1ccc2c3c(n(C)c2c1)[C@H](CO)N(Cc1ccccc1)CC31CCN(C)CC1` displays activation of 15.2

====

- experimentalProtocol: primary screen for activators of insulin secretion dependent on glucose, INS-1E cells, GLuc reporter luminescence (AID 743287);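 note: 0% = median of neutral control wells and 100% = median of IBMX positive control wells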
- testSettings: INS-1E GLuc reporter insulin secretion, 2-3 h, at 16.6 µM
The campaign covered roughly 370,000 compounds. About 2,300 (0.62%) were called active.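 Rule for the calls: active = lowest replicate activation of at least 40%, so every replicate reaches that level; inactive = the rest.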 This is one part of a sample in which actives are shown more often than they occur.
The reply should be one of these categories: yes = active, no = inactive

Example results:
compound: O=C(CC1CC1)N1[C@@H](CO)[C@H](c2ccccc2)C12CN(Cc1cccnc1)C2
cat: no

compound: COc1ccc(NC(=O)Nc2cccc3c2O[C@H](CN(C)Cc2ccncc2)[C@@H](C)CN([C@@H](C)CO)C3=O)cc1
cat: no

compound: O=C(C[C@H]1C[C@H]2c3cc(NC(=O)NC4CCCC4)ccc3O[C@H]2[C@@H](CO)O1)NCc1ccc(-c2ccccc2)cc1
cat: no

compound: COc1ccc2c3c(n(C)c2c1)[C@@H](CO)NCC31CN(S(=O)(=O)c2cccc(C)c2)C1
cat: no

compound: C[C@H]1CN([C@@H](C)CO)C(=O)c2cc(NC(=O)C3CCCCC3)ccc2O[C@H]1CN(C)S(=O)(=O)c1cn(C)cn1
cat: no

# outcome recorded in this test, key = `O=C(CSc1nc(C2CC2)nc2ccccc12)Nc1ccc2c(c1)OCCO2`
yes

Write down the call the test reported for this compound. Item: `Cc1nnc(NC(=O)CSc2nc(C3CCCCC3)nc3ccccc23)s1`
no

// param item: `COc1ccc2c3c([nH]c2c1)[C@@H](CO)N(Cc1ccc2c(c1)OCO2)CC31CN(C(=O)Nc2c(C)noc2C)C1` ; yields the recorded call
no

Hi team, can someone confirm the assay call for `O=C(O)CCCN1C(=O)c2ccccc2Sc2ncccc21` ?
no

// param item: `O=C(C[C@@H]1CC[C@H](NC(=O)C2CC2)[C@@H](CO)O1)NCc1ccncc1` ; yields the recorded call
no

# fetch the recorded call for `COCc1cc(=O)n2[nH]c(C)c(-c3ccccc3)c2n1` here
no
